experimental target: T1, orthogonal hCD122 receptor (hoRb), hCD122 with H133D and Y134F (human, UniProt P14784 27-550)
T1 sequence: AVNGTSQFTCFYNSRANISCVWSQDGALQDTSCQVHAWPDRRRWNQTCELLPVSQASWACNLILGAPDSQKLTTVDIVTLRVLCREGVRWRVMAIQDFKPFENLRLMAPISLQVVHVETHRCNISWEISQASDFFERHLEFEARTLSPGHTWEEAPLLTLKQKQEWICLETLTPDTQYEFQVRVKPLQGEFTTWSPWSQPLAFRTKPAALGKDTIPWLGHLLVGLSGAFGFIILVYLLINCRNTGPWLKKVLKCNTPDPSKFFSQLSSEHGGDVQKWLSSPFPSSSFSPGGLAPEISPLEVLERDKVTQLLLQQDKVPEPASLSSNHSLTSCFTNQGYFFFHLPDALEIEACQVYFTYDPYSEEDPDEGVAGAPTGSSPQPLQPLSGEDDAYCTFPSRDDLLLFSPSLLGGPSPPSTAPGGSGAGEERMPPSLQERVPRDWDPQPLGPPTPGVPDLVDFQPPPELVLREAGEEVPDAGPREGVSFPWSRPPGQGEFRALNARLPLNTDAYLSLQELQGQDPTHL
assay notes: cell-based or functional assay
Exercise: state measured NKL Ortho Proliferation Signal 1:2 for each of the binders provided.
Please give only the number in your answer, with no unit.

Q) Indicate its recorded NKL Ortho Proliferation Signal 1:2; the binder in question is C125S, SQVLKA (ligand) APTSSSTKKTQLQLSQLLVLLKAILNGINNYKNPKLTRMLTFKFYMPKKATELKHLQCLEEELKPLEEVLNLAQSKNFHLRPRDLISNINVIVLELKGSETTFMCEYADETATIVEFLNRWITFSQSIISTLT
A) 48200

Q) Indicate its recorded NKL Ortho Proliferation Signal 1:2; the binder in question is V91K, SQVLKA (ligand) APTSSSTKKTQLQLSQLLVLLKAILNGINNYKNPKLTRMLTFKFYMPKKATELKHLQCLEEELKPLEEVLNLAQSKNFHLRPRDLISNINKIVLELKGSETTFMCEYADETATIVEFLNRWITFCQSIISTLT
A) 5180
